Test system: PI(3,4,5)P3 liposomes
Experiment: Yeast proteome chip probed with PI(3,4,5)P3 liposomes
Conditions: liposome binding signal on yeast proteome chip, Cy3-streptavidin detection

molecule	PI(3, 4, 5)P3
BUD32: yeast GST-HisX6 fusion protein on proteome chip (protein, UniProt P53323 1-261, looked up, GST-His6 fusion tag, yeast GST-HisX6 fusion protein on proteome chip) EKC/KEOPS complex subunit …: MTQEFIDKVSSYLTPDVDIAPISQGAEAIVFTTTTHPYLPRAKDSHQKYIIKYRPPKRYRHPQIDQALTKHRTLNESRLLAKLYLIPGLCVPQLIACDPYNGFIWLEFLGEDLPGGHGFSNLKNFLWMHDQDPYSDLVATTLRKVGRQIGLLHWNDYCHGDLTSSNIVLVRDGARWTPHLIDFGLGSVSNLVEDKGVDLYVLERAILSTHSKHAEKYNAWIMEGFEEVYREQGAKGAKKLKEVTKRFEEVRLRGRKRSMLG	108.67
RPL9B: yeast GST-HisX6 fusion protein on proteome chip (protein, UniProt P51401 1-191, looked up, GST-HisX6 tag, yeast GST-HisX6 fusion protein on proteome chip) Large ribosomal subunit …: MKYIQTEQQIEIPEGVTVSIKSRIVKVVGPRGTLTKNLKHIDVTFTKVNNQLIKVAVHNGDRKHVAALRTVKSLVDNMITGVTKGYKYKMRYVYAHFPINVNIVEKDGAKFIEVRNFLGDKKIRNVPVRDGVTIEFSTNVKDEIVLSGNSVEDVSQNAADLQQICRVRNKDIRKFLDGIYVSHKGFIVEDM	−0.45
PKR1: yeast GST-HisX6 fusion protein on proteome chip (protein, UniProt Q03880 1-122, looked up, GST-His6 tag, yeast GST-HisX6 fusion protein on proteome chip) V-type ATPase assembly factor …: MANFFVRLWESVFEPGTSPQLIIATHVSFVALLLTLIWLIYATNGNIHFYALFCISLLLWITVIWFINELSHVKLKDNDELDKDANKKDDSAIKEDSEDKQESGKSTSTARRTQAQSRSRKA	15.75
MAG1: yeast GST-HisX6 fusion protein on proteome chip (protein, UniProt P22134 1-296, looked up, GST-His6 tag, yeast GST-HisX6 fusion protein on proteome chip) DNA-3-methyladenine …: MKLKREYDELIKADAVKEIAKELGSRPLEVALPEKYIARHEEKFNMACEHILEKDPSLFPILKNNEFTLYLKETQVPNTLEDYFIRLASTILSQQISGQAAESIKARVVSLYGGAFPDYKILFEDFKDPAKCAEIAKCGLSKRKMIYLESLAVYFTEKYKDIEKLFGQKDNDEEVIESLVTNVKGIGPWSAKMFLISGLKRMDVFAPEDLGIARGFSKYLSDKPELEKELMRERKVVKKSKIKHKKYNWKIYDDDIMEKCSETFSPYRSVFMFILWRLASTNTDAMMKAEENFVKS	29.02
